- procedure-details: yeast display, Sf9 membrane polyspecificity reagent, FACS + sequencing; frameworks hold sequencing errors
readout-kind: polyreactivity (PSR sort gate)

Dear colleague, I am looking for the recorded polyreactivity (PSR sort gate) of the following sequence: QVQLVESGGGLVQAGGSLRLSCAASGFTFVINDLGWYRQAPGKERELVADITSGGDTYYADSVKGRFTISRDNAKNTVYLQMNSLKPEDTAFYYCAADIYPDWIYLLYGYWGQGTQVTVSS
low polyreactivity

Dear colleague, I am looking for the recorded polyreactivity (PSR sort gate) of the following sequence: QVQLVESGGGLVQAGGSLRLSCAASGFTVDLYAMGWYRQAPGKERELVAAITSSGGSTYYADSVKGRFTISRDNAKNTVYLQMNSLTPEDTAVYYCAVAYSSHTSYYSWGQGTQVTVSS
low polyreactivity
